B1: tRNA (parent)
chain: GUUCCGUUGGCGUAAUGGUAACGCGUCUCCCUCCUAAGGAGAAGACUGCGGGUUCGAGUCCCGUACGGAACG

- Variants of: B1
- protocol description: yeast fitness relative to wild type (ratio to wild type); higher = fitter; tRNA-Arg(CCU), competitive growth, 37 C, YPD
Variants at the floor of the assay were thinned out.
Here, each record is paired with measured yeast fitness data.
attribute measured: yeast fitness

variant name	attribute measured	sign	recorded result
C5G A20U G25A C31U G41A C55G	yeast fitness	≤	0.5
C4G C31U	yeast fitness	=	1.12
G18C G52C C60U	yeast fitness	=	0.591
G41A G52U U64A G68A	yeast fitness	=	0.622
C4G C29U A43G U53G G63A	yeast fitness	≤	0.5
G6C A15G G56C	yeast fitness	≤	0.5
A15C G58A G68A	yeast fitness	=	0.611
G44C U47C G58A	yeast fitness	=	0.766
